- system-under-test: protein kinase C
- assay: protein kinase C inhibition
- measurement-setup: read-out: IC50 for protein kinase C; serine/threonine kinase
outcome-measure: pIC50
Kindly note that pIC50 refers to -log10 of the concentration in mol/L and answer with the value alone.

## Input Lab note: need pIC50 for O=C1OC(c2ccc(O)c(O)c2)=C/C1=C\c1ccc(O)c(O)c1 [BE‐23372M] on protein kinase C, anyone have it?
## Output 5.39

====

- system-under-test: p43^v‐abl
- assay: p43v-abl tyrosine kinase inhibition
- measurement-setup: read-out: IC50 for p43^v‐abl
outcome-measure: IC50

## Input # query: IC50 of entry O=C1OC(c2ccc(O)c(O)c2)=C/C1=C\c1ccc(O)c(O)c1 [BE‐23372M]
## Output 1 µM
